tested on: 817829-284-R-J1-PDC complex spheroid viability; assay: Anticancer human tumor 817829-284-R-J1-PDC patient-derived colon adenocarcinoma cell line growth inhibition [POLQ]; conditions: second compound 10 µM; first compound 0.316 µM; stronger effect = lower value;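 also: spheroids exposed to compounds for 7 days; 100% = DMSO vehicle-treated spheroids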
Consider the following molecules and their measured viability, T/C readings.
Note: unit % is implicit; provide only the numeric part.

**Q:** So what does the record say about viability, T/C for CCc1c2c(nc3ccc(O)cc13)-c1cc3c(c(=O)n1C2)COC(=O)[C@]3(O)CC + COC1C(OC(N)=O)C(O)C(Oc2ccc3c(O)c(NC(=O)c4ccc(O)c(CC=C(C)C)c4)c(=O)oc3c2C)OC1(C)C ?
**A:** 5.07

**Q:** So what does the record say about viability, T/C for C#Cc1c(F)ccc2cc(O)cc(-c3ncc4c(N5CC6CCC(C5)N6)nc(OCC56CCCN5CC(F)C6)nc4c3F)c12 (stereo not drawn) + Nc1ccc(C#CCN(C(=O)Cc2ncc(C(F)(F)F)cc2C(F)(F)F)c2ccc(F)cc2)nn1 ?
**A:** 73.8

API: the following record is the query input.
**Q:** So what does the record say about viability, T/C for C#Cc1c(F)ccc2cc(O)cc(-c3ncc4c(N5CC6CCC(C5)N6)nc(OCC56CCCN5CC(F)C6)nc4c3F)c12 (stereo not drawn) + Cc1cccc(N(C)C(=O)C2C(O)CCN2c2nc(C)cc(C(F)(F)F)c2C#N)c1 ?
**A:** 90.2
